experimentDescription: xn = mol fraction of the nth substance listed
experimentalSetup: 298.15 K; 101.3 kPa; Liquid; Vibrating tube method; x1 = 0.1
± gives the expanded uncertainty stated by the source.
metric: mass density
Respond with a number, then the unit of measure.

Quick batch: mass density for everything below.
1. O=C1CCCC1 [cyclopentanone] + CCCCCCO
2. O=C1CCCC1 [cyclopentanone] + CCCCCCCCCCO
3. O=C1CCCC1 [cyclopentanone] + CCCCCCCCO
4. O=C1CCCC1 [cyclopentanone] + CCO
5. O=C1CCCC1 [cyclopentanone] + CCCCO

["823.87 ± 1.1 kg/m3", "829.38 ± 1 kg/m3", "827.28 ± 1 kg/m3", "811.02 ± 1.1 kg/m3", "820.75 ± 1.1 kg/m3"]

###

experimentDescription: xn = mol fraction of the nth substance listed
experimentalSetup: 298.15 K; 101.3 kPa; Liquid; Vibrating tube method; x1 = 0.8
Please respond with reported mass density for every item in the list.
Answers are plain numbers, in kg/m3.

Recorded mass density, per entry:
O=C1CCCC1 [cyclopentanone] + CCCCCCO :: 909.92
O=C1CCCC1 [cyclopentanone] + CCCCO :: 920.01
O=C1CCCC1 [cyclopentanone] + CCCCCCCCO :: 905.27

Hey, can you go through the list below and give me mass density for every item?
1. O=C1CCCC1 [cyclopentanone] + CCCCCCCCCCO
2. O=C1CCCC1 [cyclopentanone] + CCO

[901.52, 927.18]

###

Field: refractive index. Provide a value for each of the compounds that follow.
experimentDescription: refractive index (Na D-line) (dimensionless); xn = mol fraction of the nth substance listed
experimentalSetup: 298.15 K; 101.3 kPa; Liquid; Standard Abbe refractometry; x1 = 0.4
Numbers only.

A selection of reference data follows.
O=C1CCCC1 [cyclopentanone] + CCCCCCCCO :: 1.4287
O=C1CCCC1 [cyclopentanone] + CCO :: 1.3968
O=C1CCCC1 [cyclopentanone] + CCCCCCO :: 1.4221
O=C1CCCC1 [cyclopentanone] + C1CCCCC1 :: 1.4252
O=C1CCCC1 [cyclopentanone] + CCCCO :: 1.4137

Sure, the documented refractive index for O=C1CCCC1 [cyclopentanone] + CCCCCCCCCCO is 1.4333

###

experimentDescription: refractive index (Na D-line) (dimensionless); xn = mol fraction of the nth substance listed
experimentalSetup: 298.15 K; 101.3 kPa; Liquid; Standard Abbe refractometry; x1 = 0.2
Kindly state refractive index for each of the entries shown.
One number for each entry.

Kindly give each listed record's refractive index.
1. O=C1CCCC1 [cyclopentanone] + CCCCCCCCCCO
2. O=C1CCCC1 [cyclopentanone] + C1CCCCC1
3. O=C1CCCC1 [cyclopentanone] + CCCCCCO
4. O=C1CCCC1 [cyclopentanone] + CCCCO
5. O=C1CCCC1 [cyclopentanone] + CCO
6. O=C1CCCC1 [cyclopentanone] + CCCCCCCCO

1. 1.4339
2. 1.4239
3. 1.4189
4. 1.4057
5. 1.3793
6. 1.4278

###

experimentDescription: refractive index (Na D-line) (dimensionless); xn = mol fraction of the nth substance listed
experimentalSetup: 298.15 K; 101.3 kPa; Liquid; Standard Abbe refractometry; x1 = 0.7
Please go through the items and note down their refractive index.
Give bare numbers.

Some entries whose results are on file:
O=C1CCCC1 [cyclopentanone] + CCCCCCCCCCO :: 1.4333
O=C1CCCC1 [cyclopentanone] + C1CCCCC1 :: 1.4289

Respectfully, I request refractive index for each entry included below.
1. O=C1CCCC1 [cyclopentanone] + CCO
2. O=C1CCCC1 [cyclopentanone] + CCCCO

1.4182
1.4248

Would you mind giving refractive index for every compound in the list below?
1. O=C1CCCC1 [cyclopentanone] + CCCCCCCCO
2. O=C1CCCC1 [cyclopentanone] + CCCCCCO

1. 1.4311
2. 1.4279
